# Test system: VERO kidney epithelial cells
# Test summary: VERO toxicity assessment
# Condition set: Chlorocebus sabaeus, Vero, read-out: VERO: IC50
pIC50: −log10 of the molar value.
Recorded pIC50 for the following molecules

Cc1cn2c(C(=O)NCc3cccc(Oc4ccc(F)cc4)c3)c(C)nc2s1	4.49 to 4.70

# get_value(readout='pIC50', item= Cc1nc2sc(C(F)(F)F)cn2c1C(=O)NCc1ccc(N2CCOCC2)c(F)c1 )
> 4.49

Next molecule up: Cc1cn2c(C(=O)NCc3ccc(C(F)(F)F)cc3)c(C)nc2s1
> 4.49

Repeat for the following molecule: Cc1cn2c(C(=O)NCc3cc(F)ccc3F)c(C)nc2s1
> 4.49

Repeat for the following molecule: Cc1cn2c(C(=O)NCc3ccc(N(C)C)cc3)c(C)nc2s1
> 4.49
